These entries and their values trace back to patent US5753661A.

Property: ED50; scope: individual compounds
Target: UniProtKB P19327
Experiment: Generalization to the discriminative stimulus properties induced by 8-OH-DPAT in rats (8-OH-DPAT cue, agonism)
Assay type: in vivo, rat (male Wistar)
Set-up: from tissue; host or cells: living male Wistar rat (in vivo, endogenous receptor)
Conditions: rat, sc; usually 30 or 45 min before test
Parameter measured: ED50 (µmol/kg)

# Compound, Unit, Number
rows = [
    ("O=S(=O)(CCCN1CCN(c2cccc3c2OCCO3)CC1)C1CCCCC1", "µmol/kg", 0.034),
    ("O=C1N(CCN2CCN(c3cccc4ccoc34)CC2)CCN1c1ccccc1", "µmol/kg", 2.3),
    ("CC1(C)Cc2cccc(N3CCN(CCN4CCN(c5ccccc5)C4=O)CC3)c2O1", "µmol/kg", 0.13),
    ("[O-][S+](CCCN1CCN(c2cccc3c2OCCO3)CC1)C1CCCCC1 (stereo not shown)", "µmol/kg", 0.02),
]

====

Molecular target: 5-HT1A receptor (Rattus norvegicus)
Sequence (P19327 1-422): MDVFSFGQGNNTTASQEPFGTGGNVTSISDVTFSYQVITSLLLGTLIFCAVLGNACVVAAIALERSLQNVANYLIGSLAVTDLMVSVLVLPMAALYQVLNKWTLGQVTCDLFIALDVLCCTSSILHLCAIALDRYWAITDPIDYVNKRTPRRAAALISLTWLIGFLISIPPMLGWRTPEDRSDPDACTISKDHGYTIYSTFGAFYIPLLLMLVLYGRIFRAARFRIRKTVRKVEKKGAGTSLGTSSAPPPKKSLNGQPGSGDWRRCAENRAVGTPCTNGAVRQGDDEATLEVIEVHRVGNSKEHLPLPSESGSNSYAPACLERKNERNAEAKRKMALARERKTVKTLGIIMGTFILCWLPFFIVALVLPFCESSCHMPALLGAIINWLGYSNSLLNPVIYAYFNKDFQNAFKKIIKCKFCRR
Assay: Generalization to the discriminative stimulus properties induced by 8-OH-DPAT in rats (8-OH-DPAT cue, agonism)
Type: in vivo, rat (male Wistar)
Parameters: from tissue; host or cells: living male Wistar rat (in vivo, endogenous receptor)
Conditions: rat, sc; usually 30 or 45 min before test
# if measured ED50 < 2 µmol/kg: 1  # else: 0

# Compound, Label
data = [
    ("O=S(=O)(CCCN1CCN(c2cccc3c2OCCO3)CC1)c1ccccc1", 1),
    ("O=C1N(CCCN2CCN(c3cccc4c3OCC4)CC2)CCN1c1ccccc1", 1),
    ("O=c1n(CCN2CCN(c3cccc4c3OCCO4)CC2)ccn1-c1ccc(F)cc1", 1),
    ("O=C1N(CCCN2CCN(c3cccc4c3OCCO4)CC2)CCN1c1ccccc1", 0),
    ("CC1(C)Cc2cccc(N3CCN(CCCCN4CCN(C5CCCCC5)C4=O)CC3)c2O1", 1),
    ("O=C1N(CCN2CCN(c3cccc4c3OCC4)CC2)CCN1C1CCCC1", 0),
    ("CC1(C)Cc2cccc(N3CCN(CCN4CCN(C5CCCC5)C4=O)CC3)c2O1", 1),
    ("O=C(NCCN1CCN(c2cccc3c2OCC(CO)O3)CC1)c1ccc(F)cc1 (centres unmarked) [Flesinoxane, reference compound]", 1),
]

====

Target: 5-HT1A receptor (Rattus norvegicus, UniProt P19327)
Test: Inhibition of 3H-8-OH-DPAT binding to serotonin 5-HT1A receptors in rat brain in vitro
Set-up: 5-HT1A receptors in membranes from rat brain minus cerebellum; from tissue; host or cells: rat brain minus cerebellum, membranes
Conditions: 3H-8-OH-DPAT 1 nM; membranes from rat brain minus cerebellum; read-out: IC50, 3H 8-OH-DPAT binding
Parameter measured: log10 of IC50 (log10 of the value in nM)

# Compound, log10 of IC50
data = [
    ("O=C(NCCN1CCN(c2cccc3c2OCC(CO)O3)CC1)c1ccc(F)cc1 (centres unmarked) [Flesinoxane, reference compound]", 0.60),
    ("O=C1N(CCN2CCN(c3cccc4c3OCC4)CC2)CCN1C1CCCC1 [Compound 2f]", 1.73),
    ("CC1(C)Cc2cccc(N3CCN(CCCN4CCN(C5CCCCC5)C4=O)CC3)c2O1 [Compound 2kk]", 0.76),
    ("CC1(C)Cc2cccc(C3CCN(CCCCN4CCN(C5CCCCC5)C4=O)CC3)c2O1 [Compound 11a]", 0.54),
    ("O=C1N(CCN2CCN(c3cccc4[nH]ccc34)CC2)CCN1c1ccccc1 [Compound 2z]", 1.53),
    ("O=C1N(CCN2CCN(c3cccc4cc(-c5ccccc5)oc34)CC2)CCN1C1CCCC1 [Compound 14a]", 0.99),
    ("O=S(=O)(CCCN1CCN(c2cccc3c2OCCO3)CC1)C12CC3CC(CC(C3)C1)C2 [Compound 1f]", 0.04),
    ("NC(=O)c1cc2c(N3CCN(CCN4CCN(C5CCCC5)C4=O)CC3)cccc2o1 [Compound 8a]", 0.59),
]
